tested on: CLZ3 (HCA2 human fibroblast dual HR-NHEJ reporter); experiment: HR repair efficiency (tdTomato+ cells) relative to control (log10 fold); higher = more homologous recombination; settings: 5 µM; doxycycline 0.5 ug/mL;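 note: compound given one day before doxycycline, which switches on I-SceI endonuclease expression to create double-strand breaks within the integrated reporter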

molecule	HR repair efficiency (log10)
CC1CCC(C(C)C)C(O)C1 (stereo not drawn) [Menthol]	-0.0345
CC1(C)[C@H](OC(=O)c2ccccc2)CC[C@]2(C)C3=C([C@@H](O)C[C@@H]12)[C@@]1(C)CC[C@@]2(C)CC[C@@](C)(COC(=O)c4ccccc4)C[C@H]2[C@]1(C)CC3	0.103
O=C(/C=C/c1ccc(O)c2oc(-c3ccc(O)c(O)c3)cc12)O[C@H](Cc1ccc(O)c(O)c1)C(=O)O	-0.0113
